Source listed as patent US20110053897A1.

target: Syk kinase (Homo sapiens, UniProt P43405); construct: purchased; assay: Syk kinase inhibition, Caliper LabChip off-chip mobility-shift kinase assay; assay type: biochemical; settings: Caliper LabChip assay; read-out: Syk Enzyme IC50
Metric Name: log10(IC50) (log10 of the value in nM)
Field: value | Transform: log10 | Quantity: IC50 | Unit: nM

[[record]]
molecule = "CCn1ccc2cc(Nc3cnccn3)nc(NC(C)(C)CO)c2c1=O [compound 895]"
experimental_value = 1.43

[[record]]
molecule = "CC(C)(C)Nc1nc(Nc2c[n+]([O-])ccn2)cc2ccn(C[C@H](O)CO)c(=O)c12 [compound 674]"
experimental_value = 0.85

[[record]]
molecule = "O=c1c2c(N[C@H]3CC[C@@H](O)CC3)nc(Nc3cnccn3)cc2ccn1CCF [compound 999]"
experimental_value = 1.00

[[record]]
molecule = "CCn1ccc2cc(Nc3cnccn3)nc(N[C@H]3CC[C@H](CO)C3)c2c1=O [compound 827]"
experimental_value = 1.08

[[record]]
molecule = "CC(C)(C)CNc1nc(Nc2cnccn2)cc2ccn(CCO)c(=O)c12 [compound 898]"
experimental_value = 1.30


Per the records, this molecule ( Cc1cc(Nc2cc3ccn(CCO)c(=O)c3c(NC(C)(C)C)n2)ncn1 [compound 886] ) has log10(IC50) equal to 1.78

For CC(C)n1ccc2cc(Nc3cnccn3)nc(NC(C)(C)CO)c2c1=O [compound 820] the molecule record lists log10(IC50) as 1.92

Entry N#CCn1ccc2cc(-c3cnc(N)nc3)nc(NC3CCOCC3)c2c1=O [compound 751] , log10(IC50) reported as 1.85
